tested on: Mycobacterium leprae; experiment: Inhibition of Mycobacterium leprae DNA gyrase subunit A A91V mutant assessed as DNA supercoiling inhibition
Assignment: determine reported IC50 for the given compounds.
Give bare numbers, in µg/mL.

COMPOUND: CC1COc2c(N3CCN(C)CC3)c(F)cc3c(=O)c(C(=O)O)cn1c23 (configuration not stated) [OFLOXACIN]
IC50 / µg/mL: 80
//
COMPOUND: C[C@H]1NCc2cc(-c3ccc4c(=O)c(C(=O)O)cn(C5CC5)c4c3OC(F)F)ccc21 [GARENOXACIN]
IC50 / µg/mL: 8
//
COMPOUND: CO[C@@H]1[C@@H](OC(N)=O)[C@@H](O)[C@H](Oc2ccc3c(O)c(NC(=O)c4ccc(O)c(CC=C(C)C)c4)c(=O)oc3c2C)OC1(C)C [NOVOBIOCIN]
IC50 / µg/mL: 0.2
//
COMPOUND: CCn1cc(C(=O)O)c(=O)c2cc3c(cc21)OCO3 [OXOLINIC ACID]
IC50 / µg/mL: 200
//
COMPOUND: CCn1cc(C(=O)O)c(=O)c2ccc(C)nc21 [NALIDIXIC ACID]
IC50 / µg/mL: 170

Look up IC50 for the entries below, preserving their order.
1. COc1c(N2C[C@@H]3CCCN[C@@H]3C2)c(F)cc2c(=O)c(C(=O)O)cn(C3CC3)c12 [MOXIFLOXACIN]
2. COc1c(N2CCNC(C)C2)c(F)cc2c(=O)c(C(=O)O)cn(C3CC3)c12 (configuration not stated) [GATIFLOXACIN]

Output line:
1. 25
2. 20
